Molecular target: T1, cynomolgus IL-17A (cynomolgus, UniProt Q16552 24-155 (human entry), limits assumed)
T1 chain: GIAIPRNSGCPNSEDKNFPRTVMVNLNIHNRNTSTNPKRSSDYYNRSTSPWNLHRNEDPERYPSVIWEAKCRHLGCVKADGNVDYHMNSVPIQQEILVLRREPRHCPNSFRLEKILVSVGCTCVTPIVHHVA
Assay: cell-based or functional assay
observed_property: IL-6 production (NHDF), IC50 (pM)

>>> val("mAb1926 (antibody, human IgG1, lambda, V domains shown, Framework-engineered mAb; also called mAbtr1926; engineered form of MOR7700) VH: QVQLLESGGGLVQPGGSLRLSCAASGFTFSSYAMSWVRQAPGKGLEWVSTISMTSGFTYYADSVKGRFTISRDNSKNTLYLQMNSLRAEDTAVYYCARQLMLDVWGQGTLVTVSS VL: QSVLTQPPSVSVAPGQTARISCSGDNLGDKYANWYQQKPGQAPVLVIYDDIDRPSGIPERFSGSNSGNTATLTISGTQAEDEADYYCGSYDFFLGMIVFGGGTKLTVLG")
67
>>> val("mAb6785 (antibody, human IgG1, lambda, V domains shown, Framework-engineered mAb; also called engineered form of MOR8302) VH: QVQLLESGGGLVQPGGSLRLSCAASGFTFSSYAMSWVRQAPGKGLEWVSTISLTSGFTYYADSVKGRFTISRDNSKNTLYLQMNSLRAEDTAVYYCARQLTLDVWGQGTLVTVSS VL: QSVLTQPPSVSVAPGQTARISCSGDNLGDKYANWYQQKPGQAPVLVIYDDIDRPSGIPERFSGSNSGNTATLTISGTQAEDEADYYCGSYDFFLGMIVFGGGTKLTVLG")
193
>>> val("mAb4538 (antibody, human IgG1, lambda, V domains shown, Framework-engineered mAb; also called engineered form of MOR7706) VH: QVQLQQSGPGLVKPSQTLSLTCAISGDSVSSSSAAWGWIRQSPSRGLEWLGRISYRSKWYNDYAVSVKSRITINPDTSKNQFSLQLNSVTPEDTAVYYCAREVDSMYYSYFDIWGQGTLVTVSS VL: EIVLTQSPATLSLSPGERATLSCRASQNVWAFYLAWYQQKPGQAPRLLIYGASNRATGIPARFSGSGSGTDFTLTISSLEPEDFAVYYCQQYRSTLSLTFGQGTKVEIKG")
847
>>> val("mAb7024 (antibody, human IgG1, lambda, V domains shown, Framework-engineered mAb; also called engineered form of MOR8104) VH: QVQLVQSGAEVKKPGSSVKVSCKASGGTFSSYAISWVRQAPGQGLEWMGSIIPWFGTTNYAQKFQGRVTITADESTSTAYMELSSLRSEDTAVYYCARDSEYYFDHWGQGTLVTVSS VL: DIQMTQSPSSVSASVGDRVTITCRASQGISNWLNWYQQKPGKAPKLLIYAASSLQSGVPSRFSGSGSGTDFTLTISSLQPEDFATYYCQQYSDDPTFGQGTKVEIKG")
999
>>> val("mAb3077 (antibody, human IgG1, lambda, V domains shown, Framework-engineered mAb; also called engineered form of MOR7785) VH: QVQLVQSGAEVKKPGSSVKVSCKASGGTFSSYAISWVRQAPGQGLEWMGSIIPWFGWTNYAQKFQGRVTITADESTSTAYMELSSLRSEDTAVYYCARDSEYYFDHWGQGTLVTVSS VL: DIQMTQSPSSVSASVGDRVTITCRASQGISNWLNWYQQKPGKAPKLLIYAASSLQSGVPSRFSGSGSGTDFTLTISSLQPEDFATYYCQQYSDDPTFGQGTKVEIKG")
113
>>> val("mAb732 (antibody, human IgG1, lambda, V domains shown, Framework-engineered mAb; also called engineered form of MOR7775) VH: QVQLQQSGPGLVKPSQTLSLTCAISGDSVSSSSAAWGWIRQSPSRGLEWLGRISYRSKWYNDYAVSVKSRITINPDTSKNQFSLQLNSVTPEDTAVYYCAREVDSMYYSYFDIWGQGTLVTVSS VL: EIVLTQSPATLSLSPGERATLSCRASQNVWAFYLAWYQQKPGQAPRLLIYGASNRATGIPARFSGSGSGTDFTLTISSLEPEDFAVYYCTQYYSSPSLTFGQGTKVEIKG")
2020
>>> val("mAb7146 (antibody, human IgG1, lambda, V domains shown, Framework-engineered mAb; also called engineered form of MOR8160) VH: QVQLLESGGGLVQPGGSLRLSCAASGFTFSSYAMSWVRQAPGKGLEWVSTISMTSGFTYYADSVKGRFTISRDNSKNTLYLQMNSLRAEDTAVYYCARQLTLDVWGQGTLVTVSS VL: QSVLTQPPSVSVAPGQTARISCSGDNLGDKYANWYQQKPGQAPVLVIYDDIDRPSGIPERFSGSNSGNTATLTISGTQAEDEADYYCGSYDFFLGLIVFGGGTKLTVLG")
139
